Would you mind telling me the reported Kd of each entry?
- TEST_SYSTEM: HLA-B*15:01
- EXPERIMENTAL_PROTOCOL: IEDB peptide-MHC binding, purified MHC/direct/fluorescence; filed as Kd, often an IC50 or EC50 that approximates it; bounds were set here for any values at or beyond the usual limits of such assays
- CONDITION: source organism: Vibrio cholerae

If you can, please state the reported Kd value of `FPLTQRDVL` .
≥ 20 µM

Also, `FPRSAERAG` please.
≥ 20 µM

Also, `AYLLQHLDL` please.
≥ 20 µM

Also, `EIFPNIKIY` please.
0.465 µM

###

- TEST_SYSTEM: HLA-B*44:03
- EXPERIMENTAL_PROTOCOL: IEDB peptide-MHC binding, purified MHC/competitive/radioactivity; filed as Kd, often an IC50 or EC50 that approximates it; bounds were set here for any values at or beyond the usual limits of such assays
- CONDITION: source organism: Mammarenavirus machupoense
Would you mind telling me the reported pKd of each entry?
Value format note: pKd is -log10 of concentration (mol/L); just state the number.

If you can, please state the reported pKd value of `RECYAQRFYL` .
6.60

Also, `CEEGKLCYLT` please.
4.79
